The measurements presented in this section are drawn from PubChem BioAssay (NCI).

Test system: EKVX NSCLC
Experiment: NCI-60 one-dose screen, 48 h
Details: 10 µM unless noted
This is part of a sample that, as a whole, favours compounds with a hit. Of some 83,000 tested, about 20% had one in any assay. The source made the active and inactive calls. How the source made its calls: active means growth percent below 10; inactive means the rest.
Tick one outcome: 1.0 (active), 0.0 (inactive)

Record lookup: outcome of this test for `CN1CCN(Cc2ccc(NC(=O)c3cncc(C#Cc4cnc(N)c5cccnc45)c3)cc2C(F)(F)F)CC1` ?
0.0

Record lookup: outcome of this test for CCN(CC)CC(O)c1cc(-c2ccc(Cl)cc2)nc2c(C)c(Cl)ccc12 (stereo not given) ?
1.0

Record lookup: outcome of this test for `O=C(Nc1cccc2c1C(=O)c1cccc(Nc3cccc4c3C(=O)c3cccc(NC(=O)c5ccccc5)c3C4=O)c1C2=O)c1ccccc1` ?
0.0

Record lookup: outcome of this test for COc1ccc2nc3cc(Cl)ccc3c(NCCNCC(O)CO)c2c1 (stereo not given) ?
0.0

Record lookup: outcome of this test for `CCCCCCCCSC1=CC(=O)C(OC)=C(OC)C1=O` ?
0.0

Record lookup: outcome of this test for `O=C1c2ccccc2-c2nccc3cc(Cl)nc1c23` ?
1.0

Record lookup: outcome of this test for `Nc1cc(O)cc2cccnc12` ?
0.0

Record lookup: outcome of this test for `Cc1cc2cc3cc(C)c(N(C)C)cc3nc2cc1N(C)C` ?
0.0

Record lookup: outcome of this test for `O=C1/C(=C/c2ccc(F)cc2)CN(C(=O)CCN2CCC(=NO)CC2)C/C1=C\c1ccc(F)cc1` ?
1.0

Record lookup: outcome of this test for `Cc1cc(N/N=C/c2nc(-c3ccc(Cl)cc3)oc2C)c2cc(Cl)ccc2n1` ?
0.0

====

Tested on: SR leukemia
Experiment: NCI-60 one-dose screen, 48 h (100 = growth as untreated, 0 = no growth, -100 = all killed)
Details: 10 µM unless noted
This is part of a sample that, as a whole, favours compounds with a hit. Of some 83,000 tested, about 20% had one in any assay. The source made the active and inactive calls. The calls were made as follows: active = growth percent below 10; inactive = the rest.
ENDPOINT_LABEL: growth

Recall and state the measured growth for `O=C(/C=C/c1ccc(B(O)O)cc1)/C=C/c1ccc(B(O)O)cc1` .
8.8% (active)

Recall and state the measured growth for `Nc1nc2ccc(-c3nc4ccc5[nH]ncc5c4c4c3CCC4)cc2s1` .
20.7% (inactive)

Recall and state the measured growth for `COc1cc(C#N)cc(OC)c1OCCN(CCOc1c(OC)cc(C#N)cc1OC)S(=O)(=O)c1ccc(C)cc1` .
106% (inactive)

Recall and state the measured growth for `O=C(Nc1cccc2[nH]c(C(F)(F)F)nc12)c1ccc(Br)cc1F` .
18.5% (inactive)

Recall and state the measured growth for `O=c1[nH]c(-c2ccccn2)nc2sc3c(c12)CCCCC3` .
27.3% (inactive)

====

System: SK-MEL-5 melanoma
Test: NCI-60 one-dose screen, 48 h
Details: 10 µM unless noted
About 83,000 compounds went through this panel and 20% of them were active in at least one assay; those are over-represented in the sample as a whole. Calls of active or inactive are those of the source. How the source made its calls: active means growth percent below 10; inactive means the rest.
Tick one outcome: t (active), f (inactive)

Record lookup: outcome of this test for ClC1=C2NC=NC2n2c(nnc2-c2ccc(Cl)cc2)N1 (stereo not given) ?
f

Record lookup: outcome of this test for `O=C(CCN1CCOCC1)Nc1ccc(Cn2nnc3c2C(=O)c2nnn(Cc4ccc(NC(=O)CCN5CCOCC5)cc4)c2C3=O)cc1` ?
t

Record lookup: outcome of this test for `O=C1Nc2ccccc2/C1=C/C(=N/c1nnc(-c2ccc(Cl)cc2)s1)c1ccccc1` ?
f

Record lookup: outcome of this test for `O=C(CO[N+](=O)[O-])Nc1ccc(C(=O)/C=C/c2ccc3c(c2)OCO3)cc1` ?
f

Record lookup: outcome of this test for O=C1C2CC=CCC2C(=O)N1CNc1ccc(Cl)cc1 (stereo not given) ?
f

Record lookup: outcome of this test for `CCCCCCCCCCCCCC1=NCCN1CCO` ?
f

Record lookup: outcome of this test for `Nc1c(C(=O)Nc2ccccc2Cl)sc2nc3c(cc12)CCCCCC3` ?
f

Record lookup: outcome of this test for `CSc1[nH]c2ncnc(N)c2c1C#N` ?
f

Record lookup: outcome of this test for C=C1CCC2C3(C)COC(c4cccc(Cl)c4)OC3CCC2(C)C1/C=C/C1=CCOC1=O (stereo not given) ?
f

Record lookup: outcome of this test for `CN(C)CCOc1ccc(-c2nc3ccc(-c4nc5ccc(N6CCN(C)CC6)cc5[nH]4)cc3[nH]2)cc1` ?
f

====

Tested on: NCI-H522 lung
Assay: NCI-60 one-dose screen, 48 h (100 = growth as untreated, 0 = no growth, -100 = all killed)
Conditions: 10 µM unless noted
The panel holds about 83,000 compounds, 20% with a hit somewhere; the sample as a whole holds those more often.
Give measured growth for each item. Keep answers brief.
Use % as the unit, but write only the number.

Recall and state the measured growth for CC1=C(C)C(=O)OC([C@](C)(O)[C@]2(O)CC[C@@]3(O)[C@@H]4C[C@H]5O[C@]56CC=CC(=O)[C@]6(C)[C@H]4CC[C@]23COC(=O)c2ccc(C)o2)C1 (stereo not given in full) .
-68.7

Recall and state the measured growth for `Cc1cc(Nc2nc(N3CCNCC3)nc3ccccc23)n[nH]1` .
76.4

Recall and state the measured growth for `O=C(O)c1cccc2c1-c1ccccc1C2=O` .
88.2

Recall and state the measured growth for CC(=O)OCC(=O)C1CCC=CC1OC(C)=O (stereo not given) .
75.1

Recall and state the measured growth for CCN(CC)CC(O)c1cc(-c2ccc(Cl)cc2)nc2c(C)c(Cl)ccc12 (stereo not given) .
-76

Recall and state the measured growth for `O=C(N/N=C/c1ccc(O)cc1O)c1cccnc1` .
-6.04

Recall and state the measured growth for `CCC(=O)Oc1ccc(/C(=C(\C)c2ccccc2)c2ccc(OCCN(CC)CC)cc2)cc1` .
73.5

Recall and state the measured growth for `CCCCCCNC(=O)Oc1ccc(/C(=C(\C)c2ccccc2)c2ccc(OCCN(CC)CC)cc2)cc1` .
47.8

Recall and state the measured growth for `COc1ccc(-c2nc(Nc3cc(C)[nH]n3)c3ccccc3n2)cc1` .
8.31

Recall and state the measured growth for `CCOc1ccc(Nc2nc(-c3c(C)nc4ncccn34)cs2)cc1` .
-6.3

====

Tested on: RXF 393 renal
Assay: NCI-60 one-dose screen, 48 h
Details: 10 µM unless noted
This is part of a sample that, as a whole, favours compounds with a hit. Of some 83,000 tested, about 20% had one in any assay. Activity calls are given as the source filed them. Rule for the calls: active = growth percent below 10; inactive = the rest.
Tick one outcome: active, inactive

Record lookup: outcome of this test for Cc1nc2sc(C(=O)Nc3cccc4c3OCCO4)c(N)c2cc1C(C)O (stereo not given) ?
active

Record lookup: outcome of this test for CCC(c1ccccc1)C(CC)c1ccc(O)c(O)c1 (stereo not given) ?
inactive

Record lookup: outcome of this test for `COCCOc1ccc(-c2nc3ccc(-c4nc5ccc(N6CCN(C)CC6)cc5[nH]4)cc3[nH]2)cc1` ?
active

Record lookup: outcome of this test for `O=C1/C(=C/c2ccccc2)CN(CCC(=O)N2C/C(=C\c3ccccc3)C(=O)/C(=C/c3ccccc3)C2)C/C1=C\c1ccccc1` ?
inactive

Record lookup: outcome of this test for `C/C(=C(/c1ccc(O)cc1)c1ccc(OCCN(C)C)cc1)c1ccccc1` ?
inactive

====

System: DU-145 prostate
Test: NCI-60 one-dose screen, 48 h
Settings: 10 µM unless noted
Compounds without any hit were thinned out: in the full panel of roughly 83,000, 20% have a hit. Active and inactive are the calls of the source. The calls were made as follows: active = growth percent below 10; inactive = the rest.
Tick one outcome: true (active), false (inactive)

Record lookup: outcome of this test for `C=C(CN1CCN(c2cccc(C(F)(F)F)n2)CC1)c1ccc(C(=O)Nc2ccccc2N)cc1` ?
true

Record lookup: outcome of this test for `COc1ccc(-c2c(C)noc2-c2ccc(O)cc2O)cc1` ?
false

Record lookup: outcome of this test for `CCOC(=O)c1ccc2c(c1)nc(/C=C/c1ccc(Cl)cc1)n2-c1cc(C(C)(C)C)[nH]n1` ?
false

Record lookup: outcome of this test for `CCOC(=O)C(=Cc1ccccc1F)C(=O)OCC` ?
false

Record lookup: outcome of this test for `COc1cccc(-c2nc3sccn3c2-c2ccnc(NCCCNS(=O)(=O)c3ccccc3)c2)c1` ?
false

Record lookup: outcome of this test for `COc1ccc(C(=O)c2sc3nc4c(cc3c2N)CCCC4)cc1OC` ?
false

Record lookup: outcome of this test for `O=c1c2cccc3c(Nc4c(F)cccc4F)ccc(c32)c2nc3ccccc3n12` ?
false

Record lookup: outcome of this test for `CN1/C(=C\C=C\C2=[N+](C)c3ccccc3C2(C)C)C(C)(C)c2ccccc21` ?
false

Record lookup: outcome of this test for `CCN(CC)CCC(=O)c1ccc(OC)c2ccccc12` ?
false

Record lookup: outcome of this test for `Oc1cc(O)c2c(=S)cc(-c3ccc(Cl)cc3)oc2c1` ?
false

Record lookup: outcome of this test for `CSc1nc(NCCO)c(C#N)c(-c2cccc(N)c2)n1` ?
false
